molecular target: HDM2 (Homo sapiens); construct: Thioredoxin (N); made in house; host or cells: E. coli strain BL21(DE3)Rosetta; experiment: HDM2 FRET assay (inhibition of binding of FITC labeled p53-pocket peptide to HDM2); conditions: Table 9; read-out: FRET IC50
Sequence (Q00987 17-125): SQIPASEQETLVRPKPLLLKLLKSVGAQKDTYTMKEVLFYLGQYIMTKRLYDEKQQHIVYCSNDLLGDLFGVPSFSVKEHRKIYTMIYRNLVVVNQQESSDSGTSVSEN
Readout Label: IC50

Consider the reported IC50 for these compounds:
C[C@@H](CO)Nc1nc2nc(C(=O)O)nc(N[C@H](C)C3CCC3)c2n1Cc1ccc(C(F)(F)F)cc1    85.9 nM
CC(C)CC1CCN(c2nc3nc(-c4noc(=O)[nH]4)nc(N[C@H](C)C4CCC4)c3n2Cc2ccc(C(F)(F)F)cc2)C1 (stereo partly drawn)    478 nM
CC(C)C1CCCN(c2nc3nc(C(=O)O)nc(N[C@H](C)C4CCC4)c3n2Cc2ccc(C(F)(F)F)cc2)C1 (stereo partly drawn)    26.2 nM
C[C@@H](Nc1nc(C(=O)O)nc2nc(N(C)C3CCCCC3)n(Cc3ccc(C(F)(F)F)cc3)c12)C1CCC1    7.4 nM
C[C@@H](Nc1nc(-c2noc(=O)[nH]2)nc2nc(N3CCOCC3(C)C)n(Cc3ccc(C(F)(F)F)cc3)c12)C1CCC1    12.2 nM

q: Fill in the blank: the reported IC50 of C[C@H](Nc1nc2nc(C(=O)O)nc(N[C@H](C)C3CCC3)c2n1Cc1ccc(C(F)(F)F)cc1)c1ccc(F)cc1 is ____.
a: 1.81 nM

q: Given the entry C[C@H](CO)Nc1nc2nc(C(=O)O)nc(N[C@H](C)C3CCC3)c2n1Cc1ccc(C(F)(F)F)cc1 , report its measured IC50.
a: 35.8 nM

All figures here come from patent EP2951180B1.
